# EXPERIMENTAL_SYSTEM: KCNT1 (KNa1.1, Slack) (Homo sapiens, UniProt Q5JUK3)
# EXPERIMENT_NOTES: KCNT1-WT-Basal patch clamp assay (SyncroPatch 384PE, HEK-TREX inducible cell line)
# ASSAY_CONTEXT: tetracycline inducible HEK-TREX cells; perforated patch; holding -80 mV, 100 ms step to 0 mV; room temperature; read-out: KCNT1 WB IC50
MEASURE_NAME: IC50

[[record]]
compound = "Cc1cc(C(=O)N[C@@H]2CCc3cc(Cl)ccc32)ccc1S(C)(=O)=O"
endpoint_value = "1000 to 20000 nM"


Input: For KCNT1 (KNa1.1, Slack) (Homo sapiens, UniProt Q5JUK3), give the measured IC50 of the entry COc1ccc(C(=O)NC2CCc3cc(Cl)ccc32)c(O)c1 (single isomer, unassigned) [Compound III-1]
Output: > 20000 nM

Input: Given O=C(N[C@@H]1CCc2cc(Cl)ccc21)c1ccc(NS(=O)(=O)C(F)(F)F)cc1 , report its IC50 on KCNT1 (KNa1.1, Slack) (Homo sapiens, UniProt Q5JUK3).
Output: ≥ 20000 nM

Input: Write IC50 of CN(c1ccc(C(=O)N[C@@H]2CCc3cc(Cl)ccc32)cc1)S(=O)(=O)C1CC1 ; system used: KCNT1 (KNa1.1, Slack) (Homo sapiens, UniProt Q5JUK3)
Output: ≤ 1000 nM

Input: System KCNT1 (KNa1.1, Slack) (Homo sapiens, UniProt Q5JUK3). Read-out IC50. Item O=C(N[C@@H]1CCc2cc(Cl)ccc21)c1ccc(S(=O)(=O)C2CC2)s1 . Report value.
Output: ≤ 1000 nM

Input: Write down measured IC50 (KCNT1 (KNa1.1, Slack) (Homo sapiens, UniProt Q5JUK3)) for this compound. O=C(N[C@@H]1CCc2cc(Cl)ccc21)c1ccc(F)cc1O
Output: ≤ 1000 nM

Input: Answer with IC50 of NS(=O)(=O)c1c[nH]c(C(=O)N[C@@H]2CCc3cc(Cl)ccc32)c1 measured for KCNT1 (KNa1.1, Slack) (Homo sapiens, UniProt Q5JUK3).
Output: ≥ 20000 nM

Input: Provide KCNT1 (KNa1.1, Slack) (Homo sapiens, UniProt Q5JUK3) IC50 reading for CS(=O)(=O)Nc1ccc(C(=O)NC2CCc3cc(C(F)(F)F)ccc32)cc1 (single isomer, unassigned) [Compound II-56] .
Output: ≤ 1000 nM

Input: Under KCNT1 (KNa1.1, Slack) (Homo sapiens, UniProt Q5JUK3), report IC50 for CN(C)C(=O)c1ccc(C(=O)N[C@@H]2CCc3cc(Cl)ccc32)cc1
Output: 1000 to 20000 nM

Input: For KCNT1 (KNa1.1, Slack) (Homo sapiens, UniProt Q5JUK3), give IC50 of the listed compound: O=C(N[C@@H]1CCc2cc(Cl)ccc21)c1cnc(Cl)s1
Output: ≤ 1000 nM

Input: Supply IC50 measured with KCNT1 (KNa1.1, Slack) (Homo sapiens, UniProt Q5JUK3) for CS(=O)(=O)Nc1ccc(C(=O)N[C@@H]2CCc3cc(Cl)ccc32)cc1 .
Output: ≤ 1000 nM

Input: State the measured IC50 (KCNT1 (KNa1.1, Slack) (Homo sapiens, UniProt Q5JUK3)) of Nc1ccc(C(=O)N[C@@H]2CCc3cc(Cl)ccc32)cc1
Output: 1000 to 20000 nM

Input: Lab note: KCNT1 (KNa1.1, Slack) (Homo sapiens, UniProt Q5JUK3) assay, enter IC50 for CS(=O)(=O)Nc1ccc(C(=O)N[C@H]2CCc3cc(Cl)ccc32)cc1 here
Output: ≥ 20000 nM

Input: Identify measured IC50 obtained with KCNT1 (KNa1.1, Slack) (Homo sapiens, UniProt Q5JUK3) for O=C(N[C@H]1CCc2cc(Cl)ccc21)c1ccc(NS(=O)(=O)C2CC2)cc1 .
Output: > 20000 nM

Input: Lab note: record IC50 of CN(C)S(=O)(=O)c1ccc(C(=O)N[C@@H]2CCc3cc(Cl)ccc32)s1 tested on KCNT1 (KNa1.1, Slack) (Homo sapiens, UniProt Q5JUK3).
Output: ≤ 1000 nM

Input: Under KCNT1 (KNa1.1, Slack) (Homo sapiens, UniProt Q5JUK3): report IC50 of CN(C)C(=O)CN(c1ccc(C(=O)N[C@@H]2CCc3cc(Cl)ccc32)cc1)S(C)(=O)=O .
Output: 1000 to 20000 nM

Input: GET IC50 | system: KCNT1 (KNa1.1, Slack) (Homo sapiens, UniProt Q5JUK3) | item: CN1CCN(S(=O)(=O)c2ccc(C(=O)N[C@@H]3CCc4cc(Cl)ccc43)s2)CC1
Output: ≤ 1000 nM

* * *

# EXPERIMENTAL_SYSTEM: KCNT1 (KNa1.1, Slack) (Homo sapiens)
# Construct: expressed in transfected cells; host or cells: HEK-TREX (tetracycline-inducible HEK cell line)
# Sequence (Q5JUK3 1-1230): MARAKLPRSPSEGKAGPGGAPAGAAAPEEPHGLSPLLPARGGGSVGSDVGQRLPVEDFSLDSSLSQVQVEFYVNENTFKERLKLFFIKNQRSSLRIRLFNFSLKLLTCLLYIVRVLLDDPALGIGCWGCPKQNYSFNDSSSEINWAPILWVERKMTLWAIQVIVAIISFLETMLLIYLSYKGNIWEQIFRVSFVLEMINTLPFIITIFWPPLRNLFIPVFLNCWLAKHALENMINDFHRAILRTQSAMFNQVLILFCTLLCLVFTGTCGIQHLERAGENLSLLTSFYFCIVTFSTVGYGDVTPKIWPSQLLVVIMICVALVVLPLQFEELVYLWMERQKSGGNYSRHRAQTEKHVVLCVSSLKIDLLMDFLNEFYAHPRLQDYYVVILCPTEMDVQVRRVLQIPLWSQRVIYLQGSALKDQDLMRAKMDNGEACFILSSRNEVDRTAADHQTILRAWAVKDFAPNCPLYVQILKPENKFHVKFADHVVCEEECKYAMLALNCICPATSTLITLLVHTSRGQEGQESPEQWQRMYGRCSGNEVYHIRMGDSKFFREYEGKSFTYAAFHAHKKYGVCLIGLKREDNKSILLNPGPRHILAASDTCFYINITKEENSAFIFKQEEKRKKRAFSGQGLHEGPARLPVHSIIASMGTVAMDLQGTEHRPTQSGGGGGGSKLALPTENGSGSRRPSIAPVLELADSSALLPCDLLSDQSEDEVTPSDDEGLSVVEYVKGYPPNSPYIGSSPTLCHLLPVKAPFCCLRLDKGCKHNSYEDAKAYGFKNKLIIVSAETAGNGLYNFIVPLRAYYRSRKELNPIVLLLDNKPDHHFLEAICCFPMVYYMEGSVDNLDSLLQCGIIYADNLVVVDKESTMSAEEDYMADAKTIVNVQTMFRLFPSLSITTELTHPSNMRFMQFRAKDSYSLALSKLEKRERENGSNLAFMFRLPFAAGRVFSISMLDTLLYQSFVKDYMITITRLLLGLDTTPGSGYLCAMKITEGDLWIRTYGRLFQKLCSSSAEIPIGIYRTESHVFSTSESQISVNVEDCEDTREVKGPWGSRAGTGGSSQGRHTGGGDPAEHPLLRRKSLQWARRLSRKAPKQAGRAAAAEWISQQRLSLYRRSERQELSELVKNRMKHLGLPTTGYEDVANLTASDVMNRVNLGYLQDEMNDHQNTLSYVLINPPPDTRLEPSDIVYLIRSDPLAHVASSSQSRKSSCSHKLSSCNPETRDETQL
# EXPERIMENT_NOTES: KCNT1-WT-Basal patch clamp assay (SyncroPatch 384PE, HEK-TREX inducible cell line)
# Format: cell-based
# ASSAY_CONTEXT: tetracycline inducible HEK-TREX cells; perforated patch; holding -80 mV, 100 ms step to 0 mV; room temperature; read-out: KCNT1 WB IC50
# Method: KCNT1-WT-Basal—Patch Clamp Assay Inhibition of KCNT1 (KNa1.1, Slack) was evaluated using a tetracycline inducible cell line (HEK-TREX). Currents were recorded using the SyncroPatch 384PE automated, patch clamp system. […] Current were recorded in perforated patch mode (10 μM escin) from a population of cells. […] Currents were recorded at room temperature. […] Mean current was measured during the step to 0 mV. […]
pIC50: −log10 of the molar value.
MEASURE_NAME: pIC50

Answered cases to consult:
[[record]]
compound = "COc1ccc(C(=O)NC2CCc3cc(Cl)ccc32)cc1 (single isomer, unassigned) [Compound II-7]"
experimental_system = "KCNT1 (KNa1.1, Slack) (Homo sapiens)"
measure_name = "pIC50"
endpoint_value = "≤ 4.70"

[[record]]
compound = "O=C(N[C@@H]1CCc2cc(Cl)ccc21)c1ccc(S(=O)(=O)C(F)(F)F)cc1"
experimental_system = "KCNT1 (KNa1.1, Slack) (Homo sapiens)"
measure_name = "pIC50"
endpoint_value = "≥ 6.00"

[[record]]
compound = "Cc1sc(C(=O)N[C@@H]2CCc3cc(Cl)ccc32)cc1S(N)(=O)=O"
experimental_system = "KCNT1 (KNa1.1, Slack) (Homo sapiens)"
measure_name = "pIC50"
endpoint_value = "4.70 to 6.00"

[[record]]
compound = "COc1cccc(O)c1C(=O)N[C@@H]1CCc2cc(Cl)ccc21"
experimental_system = "KCNT1 (KNa1.1, Slack) (Homo sapiens)"
measure_name = "pIC50"
endpoint_value = "4.70 to 6.00"

[[record]]
compound = "COc1cccc(C(=O)N[C@@H]2CCc3cc(Cl)ccc32)c1O"
experimental_system = "KCNT1 (KNa1.1, Slack) (Homo sapiens)"
measure_name = "pIC50"
endpoint_value = "≥ 6.00"


Input: Please give measured pIC50 of the following entry: CS(=O)(=O)c1ncc(C(=O)N[C@@H]2CCc3cc(Cl)ccc32)s1
Output: ≥ 6.00

Input: # return recorded pIC50 for entry CS(=O)(=O)N(CC(F)(F)F)c1ccc(C(=O)N[C@@H]2CCc3cc(Cl)ccc32)cc1
Output: 4.70 to 6.00

Input: Hello, please tell me recorded pIC50 for this one: Cc1cccc(C(=O)N[C@@H]2CCc3cc(Cl)ccc32)c1O
Output: ≥ 6.00

The values you see were collected from patent US20220280476A1.
